# System under test: Biotinylated CoV2 Spike ECD PreS-AVI protein (SARS-CoV-2, UniProt P0DTC2 14-1208)
# Assay details: Octet binning; competitor 20D11
Mark Y only for binning response values smaller than 0.05; exact matches and larger values are N.

// known answers, use as guide
1. 20D11 VHH-Fc (Fc fusion) QVQLVESGGGLVQAGGSLRLSCAASGRTSSIYSVGWFRQAPGKERELVAGITWSGGTTYYSDSVKGRFTISRDNAKNTVNLQMNNLKPEDTAIYYCAVDRYSMTMSARDYDYWGQGTQVTVSS = Y
2. 11F5 VHH-Fc (Fc fusion) QVQLVESGGGAVQAGDSLRLSCTASGRTFSTYAVGWFRQAPGKERELLAAITGSGRNPYYPDSLKGRFTISREYAKLPVYLQMNSLKPEDTAVYYCAARRGAIATMPLDYDHWGQGTQVTVSS = N
3. 14F3 VHH-Fc (Fc fusion) QVQLVESGGGLVQAGGSLRLSCAASGRTSSIYGVGWFRQAPGKERELVALITWSGGTTYYSDSVKGRFTISKDNAKNTVFLQMNNLKPEDTAIYYCAVDTYSMTMSARDYEYWGQGTQVTVSS = Y
4. 6A1 VHH-Fc (Fc fusion) QVQLVESGGGLVQAGGSLRLSCTASGNIFSVNVMGWHRQAPGKRRELVAALTNDGRRNYADSVKGRFTISRDNAKNTIYLEMNSLKPEDTAVYYCGTGTLESGFNSWGQGLQVTVSS = N
5. 19B8 VHH-Fc (Fc fusion) QVQLVESGGGLVQAGGSLRLSCAASGRTFTNYAMGWFRQAPGKEREFVAAISWSGGGTNYADSVKGRFTISRDNAKNTVYLQMNSPKPEDTAVYYCATTLGYYGSSSRLYEYWGQGTQVTVSS = N

Attention now turns to another entry.
q: Identify whether the binder 16H7 VHH-Fc (Fc fusion) QVQLVESGGGLVQAGGSLRLSCAASGRAFSKDTMGWFRQAPGKEREFVAVISASGDSTYYADFVKGRFTISRDNAKNTEYLQMNSLKPEDTAVYHCAADGARAYYSINAHRYSWAYNYWGQGTQVTVSS records binning response below 0.05.
a: N
